Measured IC50, listed per entry for reference.
# target of assay: 20S proteasome
# experiment notes: Inhibition of human erythrocytes 20S proteasome using QXL520-YRGITCSGRQK(5-FAM)-NH2 fluorogenic peptide as substrate preincubated for 10 mins followed by substrate addition and measured after 60 mins by HTRF assay
# condition description: erythrocyte
reported property: IC50

sample smiles: CCC[C@@H](NC(=O)c1cnccn1)C(=O)N[C@@H](CCCc1ccccc1)B(O)O
target of assay: 20S proteasome
reported property: IC50
observed result: > 10 µM
//
sample smiles: CCC[C@@H](NC(=O)c1cnccn1)C(=O)N[C@@H](CC1CCCCC1)B(O)O
target of assay: 20S proteasome
reported property: IC50
observed result: > 10 µM
//
sample smiles: CCC[C@@H](NC(=O)c1oc(C)nc1C)C(=O)N[C@@H](CCCc1ccccc1)B(O)O
target of assay: 20S proteasome
reported property: IC50
observed result: > 10 µM
//
sample smiles: CCC[C@@H](NC(=O)c1cnccn1)C(=O)N[C@@H](CCc1ccccc1)B(O)O
target of assay: 20S proteasome
reported property: IC50
observed result: > 10 µM
//
sample smiles: O=C(N[C@H](Cc1ccccc1)C(=O)N[C@@H](CCCc1ccccc1)B(O)O)c1cnccn1
target of assay: 20S proteasome
reported property: IC50
observed result: 0.259 µM
//
sample smiles: CCCC[C@H](NC(=O)[C@@H](CCC)NC(=O)c1cnccn1)B(O)O
target of assay: 20S proteasome
reported property: IC50
observed result: > 10 µM
//
sample smiles: CC(C)C[C@H](NC(=O)[C@H](NC(=O)c1cnccn1)C(C)(C)C)B(O)O
target of assay: 20S proteasome
reported property: IC50
observed result: > 10 µM
//
sample smiles: CCC[C@@H](NC(=O)c1cnccn1)C(=O)N[C@@H](CC(C)C)B(O)O
target of assay: 20S proteasome
reported property: IC50
observed result: > 10 µM
//
sample smiles: CCCC[C@@H](NC(=O)c1cnccn1)C(=O)N[C@@H](CC(C)C)B(O)O
target of assay: 20S proteasome
reported property: IC50
observed result: > 10 µM
//
sample smiles: CC(C)C[C@H](NC(=O)[C@@H](CC1CCCCC1)NC(=O)c1cnccn1)B(O)O
target of assay: 20S proteasome
reported property: IC50
observed result: 0.843 µM
//
sample smiles: CCC[C@@H](NC(=O)c1cnccn1)C(=O)N[C@@H](Cc1ccccc1)B(O)O
target of assay: 20S proteasome
reported property: IC50
observed result: > 10 µM
//
sample smiles: CC(C)CCC[C@H](NC(=O)[C@@H](Cc1ccccc1)NC(=O)c1cnccn1)B(O)O
target of assay: 20S proteasome
reported property: IC50
observed result: 1.04 µM
//
sample smiles: CC[C@@H](NC(=O)c1cnccn1)C(=O)N[C@@H](CC(C)C)B(O)O
target of assay: 20S proteasome
reported property: IC50
observed result: > 10 µM
